# assay procedure: Solubility in water
# Type: physicochemical
quantity kind: solubility

Q: Would you kindly share the measured solubility for COc1cc(N2CCCC2)ccc1/C=C(\C#N)C(=O)[O-].[Na+] ?
Ans: > 7000 µg/mL

Q: Would you kindly share the measured solubility for COc1cc(N(c2ccccc2)c2ccccc2)ccc1/C=C(\C#N)C(=O)[O-].[Na+] ?
Ans: 1000 µg/mL

---
Q: Would you kindly share the measured solubility for COc1cc(N2CCCCC2)ccc1/C=C(\C#N)C(=O)[O-].[Na+] ?
Ans: > 7000 µg/mL

----------
# test system: UniProtKB P53987
# assay procedure: Inhibition of MCT1-mediated lactate transport in rat RBE4 cells incubated for 15 mins by [14C]-lactate uptake assay
quantity kind: pIC50
pIC50 is defined as minus the log10 of a concentration measured in mol/L.

Q: Would you kindly share the measured pIC50 for COc1cc(N(c2ccccc2)c2ccccc2)ccc1/C=C(\C#N)C(=O)[O-].[Na+] ?
Ans: 7.96

Q: Would you kindly share the measured pIC50 for COc1cc(N2CCCC2)ccc1/C=C(\C#N)C(=O)[O-].[Na+] ?
Ans: 7.32

Q: Would you kindly share the measured pIC50 for N#C/C(=C\c1ccc(Br)cc1)C(=O)O ?
Ans: 6.30

Q: Would you kindly share the measured pIC50 for CCN(CC)c1ccc(/C=C(\C#N)C(=O)O)cc1 ?
Ans: 7.15

Q: Would you kindly share the measured pIC50 for CCCN(CCC)c1ccc(/C=C(\C#N)C(=O)O)cc1 ?
Ans: 8.00

Q: Would you kindly share the measured pIC50 for N#C/C(=C\c1ccc([N+](=O)[O-])cc1)C(=O)O ?
Ans: 6.30

Q: Would you kindly share the measured pIC50 for COc1cc(N2CCCCC2)ccc1/C=C(\C#N)C(=O)[O-].[Na+] ?
Ans: 7.60

Q: Would you kindly share the measured pIC50 for CN(C)c1ccc(/C=C(\C#N)C(=O)O)cc1 ?
Ans: 6.85

Q: Would you kindly share the measured pIC50 for CCCCN(CCCC)c1ccc(/C=C(\C#N)C(=O)O)cc1 ?
Ans: 7.52

Q: Would you kindly share the measured pIC50 for CCCN(CCC)c1ccc(/C=C(\C#N)C(=O)O)c(OC)c1 ?
Ans: 7.92

With those in mind, consider the next molecule.
Q: Would you kindly share the measured pIC50 for CC(C)CN(CC(C)C)c1ccc(/C=C(\C#N)C(=O)O)cc1 ?
Ans: 7.00

----------
# test system: UniProt:P53987
# assay procedure: Inhibition of MCT1-mediated lactate transport in rat RBE4 cells incubated for 15 mins by [14C]-lactate uptake assay
Here, each record is paired with measured pIC50 data.
pIC50 is defined as minus the log10 of a concentration measured in mol/L.

Q: Would you kindly share the measured pIC50 for Cc1ccc(/C=C(\C#N)C(=O)O)cc1 ?
Ans: 6.30

Q: Would you kindly share the measured pIC50 for CCc1ccc(/C=C(\C#N)C(=O)O)cc1 ?
Ans: 6.30

Q: Would you kindly share the measured pIC50 for CCCCCCN(CCCCCC)c1ccc(/C=C(\C#N)C(=O)O)cc1 ?
Ans: 6.06

----------
# test system: Monocarboxylate transporter 1 (Rattus norvegicus, UniProt P53987)
# Sequence (P53987 whole entry): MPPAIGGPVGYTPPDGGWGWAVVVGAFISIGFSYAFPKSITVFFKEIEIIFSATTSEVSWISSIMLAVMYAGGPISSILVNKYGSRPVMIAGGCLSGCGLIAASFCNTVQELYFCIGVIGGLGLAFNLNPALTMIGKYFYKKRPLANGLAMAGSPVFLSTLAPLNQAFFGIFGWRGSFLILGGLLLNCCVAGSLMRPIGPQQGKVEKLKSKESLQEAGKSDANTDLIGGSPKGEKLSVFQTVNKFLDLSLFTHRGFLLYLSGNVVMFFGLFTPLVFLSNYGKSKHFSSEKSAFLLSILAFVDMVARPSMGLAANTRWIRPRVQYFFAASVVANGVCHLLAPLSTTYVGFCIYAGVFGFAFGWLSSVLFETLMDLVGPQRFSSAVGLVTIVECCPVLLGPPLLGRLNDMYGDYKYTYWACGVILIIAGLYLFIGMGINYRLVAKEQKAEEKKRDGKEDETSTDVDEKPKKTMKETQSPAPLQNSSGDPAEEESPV
# assay procedure: Inhibition of MCT1-mediated lactate transport in rat RBE4 cells incubated for 15 mins by [14C]-lactate uptake assay
# Format: cell-based
Decision: IC50 beneath 100 nM gives met; IC50 meeting or exceeding 100 nM gives not met.

Solved cases (6 shown):
Q: Please indicate whether the reported IC50 of CCCCCN(CCCCC)c1ccc(/C=C(\C#N)C(=O)O)cc1 is strictly below 100 nM.
Ans: not met

Q: Please indicate whether the reported IC50 of N#C/C(=C\c1ccc(N2CCCC2)cc1)C(=O)O is strictly below 100 nM.
Ans: met

Q: Please indicate whether the reported IC50 of COc1ccc(/C=C(\C#N)C(=O)O)cc1 is strictly below 100 nM.
Ans: not met

Q: Please indicate whether the reported IC50 of COc1cc(N(CC(C)C)CC(C)C)ccc1/C=C(\C#N)C(=O)O is strictly below 100 nM.
Ans: met

Q: Please indicate whether the reported IC50 of N#C/C(=C\c1ccc(N(c2ccccc2)c2ccccc2)cc1)C(=O)O is strictly below 100 nM.
Ans: met

Q: Please indicate whether the reported IC50 of N#C/C(=C\c1ccc2c(c1)OCO2)C(=O)O is strictly below 100 nM.
Ans: not met

---
Q: Please indicate whether the reported IC50 of N#C/C(=C\c1ccc(C#N)cc1)C(=O)O is strictly below 100 nM.
Ans: not met

Q: Please indicate whether the reported IC50 of CCCCCN(CCCCC)c1ccc(/C=C(\C#N)C(=O)O)c(OC)c1 is strictly below 100 nM.
Ans: met

Q: Please indicate whether the reported IC50 of C=CCN(CC=C)c1ccc(/C=C(\C#N)C(=O)O)c(OC)c1 is strictly below 100 nM.
Ans: met

Q: Please indicate whether the reported IC50 of N#C/C(=C\c1ccc(N2CCCCC2)cc1)C(=O)O is strictly below 100 nM.
Ans: not met

Q: Please indicate whether the reported IC50 of C=CCN(CC=C)c1ccc(/C=C(\C#N)C(=O)O)cc1 is strictly below 100 nM.
Ans: not met

Q: Please indicate whether the reported IC50 of N#C/C(=C\c1ccc(Cl)cc1)C(=O)O is strictly below 100 nM.
Ans: not met

Q: Please indicate whether the reported IC50 of C#CCN(CC#C)c1ccc(/C=C(\C#N)C(=O)O)cc1 is strictly below 100 nM.
Ans: not met

Q: Please indicate whether the reported IC50 of N#C/C(=C\c1ccc(F)cc1)C(=O)O is strictly below 100 nM.
Ans: not met
